Target: human M1 receptor (hCHRM1) (Homo sapiens, UniProt P11229)
Sequence (P11229 whole entry): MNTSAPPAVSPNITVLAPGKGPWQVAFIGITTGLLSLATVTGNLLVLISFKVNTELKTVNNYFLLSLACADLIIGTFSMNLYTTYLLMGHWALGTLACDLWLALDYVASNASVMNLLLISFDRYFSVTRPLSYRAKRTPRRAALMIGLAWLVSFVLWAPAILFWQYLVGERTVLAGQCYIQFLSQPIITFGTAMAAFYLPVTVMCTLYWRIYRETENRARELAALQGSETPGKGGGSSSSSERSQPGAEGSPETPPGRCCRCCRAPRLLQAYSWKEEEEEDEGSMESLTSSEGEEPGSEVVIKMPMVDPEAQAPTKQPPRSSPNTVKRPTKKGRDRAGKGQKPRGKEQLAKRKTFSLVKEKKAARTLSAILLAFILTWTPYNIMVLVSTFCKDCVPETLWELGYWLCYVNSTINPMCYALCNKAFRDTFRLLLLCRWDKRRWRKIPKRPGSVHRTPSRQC
Assay: Measurement of M1 receptor positive allosteric modulator (M1PAM) activity, calcium fluorescence (FLIPRtetra) in CHO-K1 cells in the presence of acetylcholine at EC20
Conditions: inflection point of M1PAM activity, in the presence of acetylcholine at EC20 (final 0.6 nM), CHO-K1 cells expressing hCHRM1; read-out: IP value
Where a name gives a salt, the structure may show the parent alone.
REPORTED PROPERTY: pEC50
Note on units: pEC50 is unitless, being -log10 of a concentration expressed in mol/L.

Consider the worked cases shown below.
COMPOUND: Cc1cc(-c2ccc(CN3Cc4ccnc(O[C@@H]5CCC[C@H]5O)c4C3=O)cc2)ccn1 (single isomer, unassigned) [Example 258, hydrochloride]
REPORTED PROPERTY: pEC50
TEST VALUE: 8.24
--
COMPOUND: COc1ccc(F)c(Oc2nccc3c2C(=O)N(Cc2ccc(-c4cn(C)nc4C)cc2F)C3)c1F [Example 283]
REPORTED PROPERTY: pEC50
TEST VALUE: 8.00
--
COMPOUND: O=C1c2c(ccnc2OCC2CCCO2)CN1Cc1ccc(-c2cnn3ccccc23)cc1 (stereo not shown) [Example 289]
REPORTED PROPERTY: pEC50
TEST VALUE: 8.33
--
COMPOUND: Cn1cc(-c2ccc(CN3Cc4cccc(Oc5c(F)cc(N)cc5Cl)c4C3=O)cc2)cn1 [Example 11]
REPORTED PROPERTY: pEC50
TEST VALUE: 7.19
--
COMPOUND: Cc1cc(-c2ccc(CN3Cc4ccnc(Oc5ccc(C(F)(F)F)cc5C)c4C3=O)cc2)cnn1 [Example 407]
REPORTED PROPERTY: pEC50
TEST VALUE: 7.13
--
COMPOUND: Cc1cc(-c2ccc(CN3Cc4cccc(O[C@H]5CCCC[C@@H]5O)c4C3=O)cc2)cnn1 (relative stereo) [Example 355]
REPORTED PROPERTY: pEC50
TEST VALUE: 8.37

Please turn your attention to the following entry.
Recorded result, Cn1cc(-c2ccc(CN3Cc4cccc(Oc5c(F)cc(C#N)cc5F)c4C3=O)cn2)cn1 [Example 378] , pEC50: 7.48
